# ASSAY_NOTES: gradient 5% acetonitrile 3 min, to 50% in 2 min, to 85% in 15 min, held 3 min, 100 µL/min
# EXPERIMENTAL_SETUP: column: Zorbax Extend-C18 2.1 x 50 mm; eluents: water / acetonitrile, 0.1% formic acid
MEASURE: RP-LC retention time
Answers without a unit are incomplete; give the number and then its unit.

`O=S(=O)(c1ccc(F)cc1)N1CCC(Cc2nncn2-c2ccccc2)CC1` has a reported RP-LC retention time of 787 s

`COC(=O)C1=CN(C2CC2)c2cc(N3CCN(C)CC3)c(F)cc2S1(=O)=O` has a reported RP-LC retention time of 955 s

Cc1cc(N2CCC(NC(=O)Nc3ccccc3C(F)(F)F)C2=O)ccc1F (stereo not given) has a reported RP-LC retention time of 915 s

CNC(=O)N1CC(C)Oc2ccc(Cl)cc21 (stereo not given) has a reported RP-LC retention time of 806 s

`COc1ccc(NC(=O)Cn2cnc3c(sc4nc(-c5ccccc5)ccc43)c2=O)c(OC)c1` has a reported RP-LC retention time of 991 s
